The compounds listed here are annotated with their IC50.
SYSTEM_TESTED: NLRP3 (Homo sapiens)
Sequence (Q96P20 whole entry): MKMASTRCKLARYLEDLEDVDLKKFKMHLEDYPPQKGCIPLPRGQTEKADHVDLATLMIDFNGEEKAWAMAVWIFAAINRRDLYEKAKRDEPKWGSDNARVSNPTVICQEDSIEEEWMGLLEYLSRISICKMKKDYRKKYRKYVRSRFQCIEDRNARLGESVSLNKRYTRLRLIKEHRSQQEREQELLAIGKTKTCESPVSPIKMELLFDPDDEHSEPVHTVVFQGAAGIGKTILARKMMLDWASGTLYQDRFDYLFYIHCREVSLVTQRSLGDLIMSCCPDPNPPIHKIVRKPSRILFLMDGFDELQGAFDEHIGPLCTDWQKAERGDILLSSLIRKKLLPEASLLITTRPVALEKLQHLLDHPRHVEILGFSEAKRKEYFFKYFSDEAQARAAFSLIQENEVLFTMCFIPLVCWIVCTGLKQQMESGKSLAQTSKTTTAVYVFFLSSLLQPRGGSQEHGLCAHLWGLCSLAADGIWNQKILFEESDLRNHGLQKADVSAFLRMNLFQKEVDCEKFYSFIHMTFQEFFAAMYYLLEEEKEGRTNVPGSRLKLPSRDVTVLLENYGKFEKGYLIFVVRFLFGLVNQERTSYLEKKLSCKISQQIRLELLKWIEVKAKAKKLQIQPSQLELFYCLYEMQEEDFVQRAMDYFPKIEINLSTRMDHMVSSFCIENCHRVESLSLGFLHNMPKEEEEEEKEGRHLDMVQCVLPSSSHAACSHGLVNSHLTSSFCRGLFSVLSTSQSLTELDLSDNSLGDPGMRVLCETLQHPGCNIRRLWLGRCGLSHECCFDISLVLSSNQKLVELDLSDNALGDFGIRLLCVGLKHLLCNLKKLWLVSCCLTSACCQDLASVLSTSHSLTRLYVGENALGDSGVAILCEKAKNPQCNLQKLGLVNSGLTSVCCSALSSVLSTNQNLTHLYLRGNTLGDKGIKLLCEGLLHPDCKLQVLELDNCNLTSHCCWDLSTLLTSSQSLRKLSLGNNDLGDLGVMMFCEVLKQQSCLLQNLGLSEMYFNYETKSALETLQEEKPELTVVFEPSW
PROCEDURE_SUMMARY: Human whole blood IL1β release assay (LPS + nigericin, AlphaLisa IL-1β)
Format: cell-based
Design: Human whole blood in Li-heparin tubes was obtained from healthy donors from a volunteer donor panel; from tissue; host or cells: human whole blood from healthy donors
ASSAY_SETUP: NLRP3 inhibitory activity, 1 μg/ml LPS, 10 μM nigericin, IL-1β release, read-out: HWB IC50
Method: For systemic delivery, the ability to inhibit NLRP3 when the compounds are present within the bloodstream is of great importance. For this reason, the NLRP3 inhibitory activity of a number of compounds in human whole blood was investigated in accordance with the following protocol. Human whole blood in Li-heparin tubes was obtained from healthy donors from a volunteer donor panel. • 1. […] IL-1β was measured according to the manufacturer protocol (Perkin Elmer-AlphaLisa IL-1β Kit AL220F-5000) • 8. […]
Structures can show the parent of a compound that is named as a salt.

Cn1nc(S(=O)(=O)NC(=O)Nc2c3c(cc4c2CCC4)CCC3)cc1CN1CCCC1 [Example 78, Sodium Salt] | 400 to 800 nM
CC(C)c1cc(F)cc(-c2cccnc2)c1NC(=O)NS(=O)(=O)c1cc(CN(C)C)n(C(C)C)n1 | 400 to 800 nM
CN(C)Cc1cc(S(=O)(=O)NC(=O)Nc2c3c(cc4c2CCC4)CCC3)nn1C | < 400 nM

Exercise: Fill blank: measured IC50 of the compound CC(C)n1nc(S(=O)(=O)NC(=O)Nc2c3c(cc4c2CCC4)CCC3)cc1CCN(C)C [Example 33, Sodium Salt] is ____.
Solution: 400 to 800 nM

Exercise: Next record, please: CC(C)n1nc(S(=O)(=O)NC(=O)Nc2c3c(cc4c2CCC4)CCC3)cc1CN(C)CC(F)(F)F
Solution: 3200 to 10000 nM

Exercise: Next record, please: CCC(c1cc(S(=O)(=O)NC(=O)Nc2c3c(cc4c2CCC4)CCC3)nn1C1CC1)N(C)C (stereo not drawn)
Solution: < 400 nM

Exercise: Next record, please: CN(C)C(C)(C)c1cc(S(=O)(=O)NC(=O)Nc2c3c(cc4c2CCC4)CCC3)nn1C
Solution: 400 to 800 nM

Exercise: Next record, please: Cn1nc(S(=O)(=O)NC(=O)Nc2c3c(cc4c2CCC4)CCC3)cc1CN1CCC1 [Example 86, Sodium Salt]
Solution: 800 to 1600 nM

Exercise: Next record, please: CC(c1cc(S(=O)(=O)NC(=O)Nc2c3c(cc4c2CCC4)CCC3)nn1C(C)C)N(C)C (stereo not drawn)
Solution: < 400 nM

Exercise: Next record, please: CC(c1cc(S(=O)(=O)NC(=O)Nc2c3c(cc4c2CCC4)CCC3)nn1C1CC1)N(C)C (stereo not drawn)
Solution: 400 to 800 nM

Exercise: Next record, please: CC(C)c1cc(Cl)cc(C(C)C)c1NC(=O)NS(=O)(=O)c1cc(CN(C)C)n(C)n1 [Example 93, Sodium Salt]
Solution: 800 to 1600 nM

Exercise: Next record, please: CC(C)c1cc(F)cc(C(C)C)c1NC(=O)NS(=O)(=O)c1cc(CN(C)C(C)C)n(C)n1 [Example 90, sodium Salt]
Solution: < 400 nM

Exercise: Next record, please: CCN(C)Cc1cc(S(=O)(=O)NC(=O)Nc2c(C(C)C)cc(F)cc2C(C)C)nn1C [Example 89, sodium Salt]
Solution: < 400 nM

Exercise: Next record, please: CC(C)n1nc(S(=O)(=O)NC(=O)Nc2c3c(cc4c2CCC4)CCC3)nc1CN(C)C
Solution: 800 to 1600 nM

Exercise: Next record, please: CC(C)c1cc(F)cc(-c2cccc(C#N)c2)c1NC(=O)NS(=O)(=O)c1cc(CN(C)C)n(C)n1
Solution: < 400 nM

Exercise: Next record, please: COc1cc(-c2ccc3c(c2NC(=O)NS(=O)(=O)c2cc(C(=O)N(C)C)n(C)n2)CCC3)ccn1 [Example 177, sodium Salt]
Solution: < 400 nM

Exercise: Next record, please: CC(C)c1cc(F)cc(-c2ccccc2)c1NC(=O)NS(=O)(=O)c1cc(CN(C)C)n(C)n1
Solution: 400 to 800 nM

Exercise: Next record, please: CCC(c1cc(S(=O)(=O)NC(=O)Nc2c(C(C)C)cc(F)cc2C(C)C)nn1C)N(C)C (stereo not drawn)
Solution: < 400 nM

Exercise: Next record, please: CCC(c1cc(S(=O)(=O)NC(=O)Nc2c3c(cc4c2CCC4)CCC3)nn1C(C)C)N(C)C (stereo not drawn)
Solution: < 400 nM

Exercise: Next record, please: CCn1nc(S(=O)(=O)NC(=O)Nc2c(-c3cccc(C#N)c3)ccc3c2CCC3)cc1CN(C)C
Solution: 400 to 800 nM

Exercise: Next record, please: COc1cc(-c2cc(F)cc(C(C)C)c2NC(=O)NS(=O)(=O)c2cc(CN(C)C)n(C)n2)ccn1
Solution: < 400 nM
